target: T1, bacterially produced human IL-6 (human, UniProt P05231 30-212); experiment: SPR; purified Fab over biotinylated IL-6 on streptavidin chip
T1 construct: also called bactIL-6; prokaryotic IL-6
property_label: koff (s⁻¹)
Numbers only; they are read as s⁻¹.

**Q:** Entry Fab 18C9 (Fab, V domains shown, Fab) VH: EVQLVESGGGLVQPGGSLRLSCAASGFTFSRNAMSWVRQAPGKGLEWVSAINSGGGSTSYADSVKGRFTISRDNAKNTLYLQMNSLKPEDTAVYYCAKEGYTGWKDPMYDYWGQGTQVTVSS VL: LNFMLTQPSALSVTLGQTAKITCQGGSLGSRYAHWYQQKPGQAPVLVIYDDDSRPSGIPERFSGSSSGGRATLTISGAQAEDDGDYYCQSADSSGNASVFGGGTHLTVLG : reported koff = ?
**A:** 0.00119

This collection of values is drawn from patent US20220073604A1.
